measurement_target: T1, gp130 on HepG2 B6 cells (UniProt P40189 23-918, limits assumed)
T1 sequence (looked up): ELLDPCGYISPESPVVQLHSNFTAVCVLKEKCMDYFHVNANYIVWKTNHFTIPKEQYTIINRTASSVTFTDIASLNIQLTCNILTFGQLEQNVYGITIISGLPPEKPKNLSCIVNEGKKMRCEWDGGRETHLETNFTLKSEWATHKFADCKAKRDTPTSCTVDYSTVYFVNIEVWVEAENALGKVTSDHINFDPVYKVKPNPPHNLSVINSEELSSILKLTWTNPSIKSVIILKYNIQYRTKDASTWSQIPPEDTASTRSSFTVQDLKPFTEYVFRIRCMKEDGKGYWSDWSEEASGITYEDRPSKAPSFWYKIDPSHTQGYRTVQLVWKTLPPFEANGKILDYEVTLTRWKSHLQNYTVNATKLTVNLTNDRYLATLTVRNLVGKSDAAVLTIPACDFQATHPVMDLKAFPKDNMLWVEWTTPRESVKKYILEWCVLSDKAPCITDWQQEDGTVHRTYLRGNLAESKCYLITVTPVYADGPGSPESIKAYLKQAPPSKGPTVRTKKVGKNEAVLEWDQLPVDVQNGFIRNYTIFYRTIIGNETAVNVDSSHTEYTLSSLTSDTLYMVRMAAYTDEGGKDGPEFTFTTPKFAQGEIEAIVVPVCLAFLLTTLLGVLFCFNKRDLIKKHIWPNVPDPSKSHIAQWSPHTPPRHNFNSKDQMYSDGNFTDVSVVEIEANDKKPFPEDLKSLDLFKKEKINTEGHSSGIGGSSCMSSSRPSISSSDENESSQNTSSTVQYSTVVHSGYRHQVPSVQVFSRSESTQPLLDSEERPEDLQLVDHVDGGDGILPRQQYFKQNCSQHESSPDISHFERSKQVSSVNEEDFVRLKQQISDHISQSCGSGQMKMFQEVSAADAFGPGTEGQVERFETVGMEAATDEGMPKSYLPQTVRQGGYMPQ
assay_name: cell-based or functional assay
For each of the binders below, state its sPAP HepG2 B6 assay: Expt 1 EC50.
All answers are understood in µg/mL, so give the number only.

For record OSM-GST mutant T21A (ligand, not shown: a dimerising Fc or GST; large carriers; small tags and cut ends, Alanine mutant of m4; also called (14)T21A; 14 T21A) AAIGSCSKEYRVLLGQLQKQADLMQDTSRLLDPYIRIQGLDVPKLREHCRERPGAFPSEETLRGLGRRGFLQTLNATLGCVLHRLADLEQRLPKAQDLERSGLNIEDLEKLQMARPNILGLRNNIYCMAQLLDNSDTAEPTKAGRGASQPPTPTPASDAFQRKLEGCRFLHGYHRFMHSVGRVFSKWGESPNRSRR the listed sPAP HepG2 B6 assay: Expt 1 EC50 is 0.017

The value of sPAP HepG2 B6 assay: Expt 1 EC50 measured for the binder OSM-GST mutant M113A (ligand, not shown: a dimerising Fc or GST; large carriers; small tags and cut ends, Alanine mutant of m4; also called (16)M113; 16 M113A) AAIGSCSKEYRVLLGQLQKQTDLMQDTSRLLDPYIRIQGLDVPKLREHCRERPGAFPSEETLRGLGRRGFLQTLNATLGCVLHRLADLEQRLPKAQDLERSGLNIEDLEKLQAARPNILGLRNNIYCMAQLLDNSDTAEPTKAGRGASQPPTPTPASDAFQRKLEGCRFLHGYHRFMHSVGRVFSKWGESPNRSRR turned out to be 0.0256

Value of measured sPAP HepG2 B6 assay: Expt 1 EC50 for the entry OSM-GST mutant S7A (ligand, not shown: a dimerising Fc or GST; large carriers; small tags and cut ends, Alanine mutant of m4; also called (1)S7A; 1 S7A) AAIGSCAKEYRVLLGQLQKQTDLMQDTSRLLDPYIRIQGLDVPKLREHCRERPGAFPSEETLRGLGRRGFLQTLNATLGCVLHRLADLEQRLPKAQDLERSGLNIEDLEKLQMARPNILGLRNNIYCMAQLLDNSDTAEPTKAGRGASQPPTPTPASDAFQRKLEGCRFLHGYHRFMHSVGRVFSKWGESPNRSRR : 0.012
